Data provenance: paper PMC9570490

Experiment: Lipophilicity (LogP) determination, shake-flask octanol/water
Type: physicochemical
Conditions: HPLC, read-out: LogP (experimental)
Excerpt: For anti-Alzheimer drug candidates, the ability to cross the blood–brain barrier (BBB) and to enter the central nervous system (CNS) is crucial to achieve their pharmacological target binding and activity, and CNS drugs require more strict rules for a successful penetration. […] Because LogP was thought as an important physicochemical parameter to evaluate the ability to cross BBB, the LogP of some compounds was further assessed in experiments. […]
ENDPOINT NAME: logP at 24 h

• COc1cc2c(Nc3ccccc3)c([N+](=O)[O-])cnc2cc1OCCCN1CCOCC1 [11a] = 3.82
• COc1cc2c(Nc3cccc(Cl)c3)c(N)cnc2cc1OCCCN1CCOCC1 [12c] = 2.35
• COc1cc2c(Nc3ccccc3)c([N+](=O)[O-])cnc2cc1OCCN1CCOCC1 [11g] = 3.55
• COc1cc2c(Nc3ccccc3)c(N)cnc2cc1OCCCN1CCOCC1 [12a] = 2.07

* * *

Each entry below lists one item and its recorded SI for AChE = IC50 BChE/IC50 AChE value.
target: AChE (EC 3.1.1.7, from electric eel) (Electrophorus electricus); construct: purchased Sigma-Aldrich; assay: biochemical
ENDPOINT NAME: SI for AChE = IC50 BChE/IC50 AChE

- COc1cc2c(Nc3ccccc3Cl)c([N+](=O)[O-])cnc2cc1OCCCN1CCOCC1 [11b]: 10.42
- COc1cc2c(Nc3cccc(Cl)c3)c([N+](=O)[O-])cnc2cc1OCCN1CCOCC1 [11i]: 11.08
- COc1cc2c(Nc3ccccc3Cl)c([N+](=O)[O-])cnc2cc1OCCN1CCOCC1 [11h]: 12.55
- COc1cc2c(Nc3ccc(Cl)cc3)c([N+](=O)[O-])cnc2cc1OCCCCN1CCOCC1 [11p]: 1.08
- COc1cc2c(Nc3ccc(Cl)cc3)c([N+](=O)[O-])cnc2cc1OCCN1CCOCC1 [11j]: 8.90
- COc1cc2c(Nc3cccc(Cl)c3)c(N)cnc2cc1OCCCN1CCOCC1 [12c]: 1.26

* * *

target: AChE (EC 3.1.1.7, from electric eel) (Electrophorus electricus); construct: purchased Sigma-Aldrich; assay: biochemical
SI for AChE = IC50 BChE/IC50 AChE by entry:
ENDPOINT NAME: SI for AChE = IC50 BChE/IC50 AChE

• COc1cc2c(Nc3ccccc3Cl)c([N+](=O)[O-])cnc2cc1OCCCCN1CCOCC1 [11n] = >1.75
• COc1cc2c(Nc3ccc(O)cc3)c([N+](=O)[O-])cnc2cc1OCCCN1CCOCC1 [11e] = >4.35
• COc1cc2c(Nc3ccccc3)c([N+](=O)[O-])cnc2cc1OCCCCN1CCOCC1 [11m] = >11.24

* * *

target: BChE (EC 3.1.1.8, from horse serum) (Equus caballus); construct: BChE (EC 3.1.1.8, from horse serum); purchased Sigma-Aldrich; host or cells: horse serum; test: biochemical; conditions: means ± SD, at least three independents
Sequence (P81908 whole entry): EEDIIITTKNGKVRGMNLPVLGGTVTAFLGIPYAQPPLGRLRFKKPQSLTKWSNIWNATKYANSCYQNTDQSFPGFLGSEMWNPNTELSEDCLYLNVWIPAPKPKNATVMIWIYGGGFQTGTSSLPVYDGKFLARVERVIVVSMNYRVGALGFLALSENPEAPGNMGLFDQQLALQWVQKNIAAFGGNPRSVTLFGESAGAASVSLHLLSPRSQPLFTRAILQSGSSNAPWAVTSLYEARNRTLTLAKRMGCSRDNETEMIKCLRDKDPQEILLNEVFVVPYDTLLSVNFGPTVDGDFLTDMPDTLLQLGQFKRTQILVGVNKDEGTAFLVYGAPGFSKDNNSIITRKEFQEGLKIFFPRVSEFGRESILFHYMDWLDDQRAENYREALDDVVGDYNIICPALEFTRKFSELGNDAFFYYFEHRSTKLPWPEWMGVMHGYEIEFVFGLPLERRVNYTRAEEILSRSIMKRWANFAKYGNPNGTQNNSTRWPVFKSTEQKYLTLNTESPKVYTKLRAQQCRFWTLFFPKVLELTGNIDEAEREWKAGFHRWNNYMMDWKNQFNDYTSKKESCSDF
pIC50: −log10 of the molar value.
pIC50 for assorted compounds
ENDPOINT NAME: pIC50

- COc1ccc(Nc2c([N+](=O)[O-])cnc3cc(OCCCCN4CCOCC4)c(OC)cc23)cc1 [11r]: 3.97
- COc1ccc(Nc2c([N+](=O)[O-])cnc3cc(OCCN4CCOCC4)c(OC)cc23)cc1 [11l]: 4.19
- COc1cc2c(Nc3ccc(Cl)cc3)c([N+](=O)[O-])cnc2cc1OCCN1CCOCC1 [11j]: 4.11
- COc1cc2c(Nc3cccc(Cl)c3)c(N)cnc2cc1OCCCN1CCOCC1 [12c]: 4.56
- COc1cc2c(Nc3cccc(Cl)c3)c([N+](=O)[O-])cnc2cc1OCCCCN1CCOCC1 [11o]: 3.93

* * *

biological target: AChE (EC 3.1.1.7, from electric eel) (Electrophorus electricus, UniProt O42275); construct: purchased Sigma-Aldrich; experiment: biochemical
Sequence (O42275 24-633): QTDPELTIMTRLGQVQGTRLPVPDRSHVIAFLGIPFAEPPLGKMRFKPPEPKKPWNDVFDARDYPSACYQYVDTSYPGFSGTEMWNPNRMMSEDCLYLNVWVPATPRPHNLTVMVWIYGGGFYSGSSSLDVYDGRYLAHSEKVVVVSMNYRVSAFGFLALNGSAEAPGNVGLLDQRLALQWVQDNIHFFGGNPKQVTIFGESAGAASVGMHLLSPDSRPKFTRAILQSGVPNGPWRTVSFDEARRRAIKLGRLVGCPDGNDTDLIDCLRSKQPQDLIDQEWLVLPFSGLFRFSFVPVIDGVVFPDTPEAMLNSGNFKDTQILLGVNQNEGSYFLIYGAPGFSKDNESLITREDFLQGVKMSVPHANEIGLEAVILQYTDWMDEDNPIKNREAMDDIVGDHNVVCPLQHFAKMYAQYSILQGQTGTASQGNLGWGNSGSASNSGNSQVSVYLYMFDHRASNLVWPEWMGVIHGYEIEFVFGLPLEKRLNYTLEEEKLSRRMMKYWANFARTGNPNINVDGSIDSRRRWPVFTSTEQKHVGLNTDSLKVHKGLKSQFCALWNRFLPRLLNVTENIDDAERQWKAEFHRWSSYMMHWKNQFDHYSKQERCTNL
Quick list: SI for AChE = IC50 BChE/IC50 AChE per entry.
ENDPOINT NAME: SI for AChE = IC50 BChE/IC50 AChE

* COc1cc2c(Nc3ccc(O)cc3)c([N+](=O)[O-])cnc2cc1OCCCCN1CCOCC1 [11q] | >4.07
* COc1cc2c(Nc3cccc(Cl)c3)c([N+](=O)[O-])cnc2cc1OCCCCN1CCOCC1 [11o] | <0.77
* COc1cc2c(Nc3ccc(O)cc3)c([N+](=O)[O-])cnc2cc1OCCN1CCOCC1 [11k] | >8.11
